system: SK-MEL-5 melanoma; assay: NCI-60 one-dose screen, 48 h (100 = growth as untreated, 0 = no growth, -100 = all killed); conditions: 10 µM unless noted
This is part of a sample that, as a whole, favours compounds with a hit. Of some 83,000 tested, about 20% had one in any assay.
Metric: growth (%)

compound=COC(=O)[C@]12CC[C@@H](C)[C@H](C)[C@@H]1C1=CC[C@@H]3[C@@]4(C)C[C@@H](OC(C)=O)[C@H](O)[C@@](C)(COC(C)=O)[C@@H]4[C@H](O)C[C@@]3(C)[C@]1(C)CC2 metric=growth recorded_number=-99.9
compound=O=C(CCCCCn1c2ccccc2c2c3c(c4c5ccccc5[nH]c4c21)C(=O)N(O)C3=O)N1CCOCC1 metric=growth recorded_number=0.765
compound="O=C1CCN2C(=O)Nc3ccccc3C2C1 (configuration not stated)" metric=growth recorded_number=103
compound=Cc1ccc(S(=O)(=O)Nc2ccc(-c3cc(-c4cccc(F)c4)c(C#N)c(=O)[nH]3)cc2)cc1 metric=growth recorded_number=82
compound=C#CCn1c(C)cc(C)c(C#N)c1=O metric=growth recorded_number=104
compound="N#CC1=C(N)Oc2ccc3ccccc3c2C1c1ccccc1 (configuration not stated)" metric=growth recorded_number=25.7
compound="CCC1C(=O)COC1=O (configuration not stated)" metric=growth recorded_number=102
compound=O=C(O[C@@H]1Cc2c(O)cc(O)cc2O[C@@H]1c1cc(O)c(O)c(O)c1)c1cc(O)c2c(c1)OCO2 metric=growth recorded_number=98.5
compound=S=c1[nH]nc2ccccn12 metric=growth recorded_number=92.3
compound=NCCn1cc(-c2nc(-c3c[nH]c4ncccc34)cs2)c2ccccc21 metric=growth recorded_number=77.2
compound=CC(=O)O[C@H]1CC[C@]2(C)[C@H]3C(=O)C=C4[C@@H]5C[C@](C)(C(=O)N6CCCNCC6)CC[C@]5(C)CC[C@@]4(C)[C@]3(C)CC[C@H]2C1(C)C metric=growth recorded_number=90.2
compound=COc1ccc(-c2nc3c(c(C)nn3-c3ccc(F)cc3)c(=O)[nH]2)cc1 metric=growth recorded_number=79.1
compound=N=c1c(S(=O)(=O)c2ccccc2)cc2c(=O)n3ccccc3nc2n1C1CCCC1 metric=growth recorded_number=84.2
compound=Cn1cc(-c2csc(-c3cn(CCN)c4ccccc34)n2)c2cccnc21 metric=growth recorded_number=23.7
compound=Cn1c2ccccc2c2c3c(c4c5cccnc5[nH]c4c21)C(=O)N(O)C3=O metric=growth recorded_number=12.7
compound=COc1ccc2c(c1)C/C(=C\c1cc(-c3ccc4c(c3)OCO4)n[nH]1)C2=O metric=growth recorded_number=88.5
compound="O=C1c2ccccc2NC(c2cn(-c3ccccc3)nc2-c2cccs2)N1Cc1ccccc1 (configuration not stated)" metric=growth recorded_number=80.9
compound="COC(=O)C(N)CSC(c1ccccc1)(c1ccccc1)c1ccccc1 (configuration not stated)" metric=growth recorded_number=23.9
compound="COC(=O)[C@]12CC[C@@H](C)[C@H](C)[C@@H]1C1=CC[C@@H]3[C@@]4(C)C[C@@H](O)OC[C@](C)(C=O)C4C(=O)C[C@@]3(C)[C@]1(C)CC2 (some centres not stated)" metric=growth recorded_number=-91.3
compound=COc1cc(-c2c(C#N)c(-c3cccs3)nc3c2c(-c2ccccc2)nn3-c2ccccc2)ccc1O metric=growth recorded_number=94.9
compound=CC/C(=N/NC(N)=O)c1ccccc1 metric=growth recorded_number=102
compound="O=C(c1ccccc1)C(CN1CCOCC1)c1ccccc1 (configuration not stated)" metric=growth recorded_number=44.5
compound=CC(C)=CCC/C(C)=C/CC/C(C)=C/CSC[C@H](NC(=O)CCCCCN1CCN(C)CC1)C(=O)NC1CCCCCC1 metric=growth recorded_number=79.9
compound=Nc1ccc(Br)cn1 metric=growth recorded_number=100
compound=COc1cccc(-c2nn(-c3ccccc3)cc2-c2ccnc(NCCNS(=O)(=O)c3ccc(C(F)(F)F)cc3)c2)c1 metric=growth recorded_number=-94.7
compound=Cc1nnc2nc(N)[nH]n2c1=O metric=growth recorded_number=106
compound=COc1ccc(-c2n/c(=C\c3c(O)[nH]c4ccc(OC)cc34)cc3c2=Nc2ccccc2-3)cc1 metric=growth recorded_number=18.5
compound=CC(C)=CCC/C(C)=C/CC/C(C)=C/CC/C(C)=C/CSC[C@H](NC(=O)CCCCCN1CCN(C)CC1)C(=O)NC1CCCCC1 metric=growth recorded_number=97.9
compound="Nc1c2c(nc3ccc(Cl)cc13)CC(c1ccccc1)CC2=O (configuration not stated)" metric=growth recorded_number=30.6
compound="Cc1csc(-c2ccc3c(c2)COC3(CCCN(C)C)c2ccc(F)cc2)c1 (configuration not stated)" metric=growth recorded_number=73.6
compound="CCOC(=O)c1ccc2c(c1)[n+](=O)c(C(=O)C1CCCS1)c(C(F)(F)F)n2[O-] (configuration not stated)" metric=growth recorded_number=-96.9
compound=COc1ccc(/C=C2\N=C(c3ccccc3)N(c3cc(OC)c(OC)cc3C(=O)N3N=C(C)CC3=O)C2=O)cc1 metric=growth recorded_number=77.3
compound=O=C(/C(=C(\C(=O)c1ccccc1)c1ccccc1)c1ccccc1)c1ccccc1 metric=growth recorded_number=59.5
compound="COc1cc(/C=C2\\C(=O)N(CC(O)COc3cc(O)c4c(=O)cc(-c5ccccc5)oc4c3)c3ccccc32)cc(OC)c1O (configuration not stated)" metric=growth recorded_number=50
compound=COc1cc2nc(Cl)nc(Nc3cccc(C(=O)/C=C/c4ccccc4)c3)c2cc1OC metric=growth recorded_number=68.8
compound=COC(=O)[C@]12CC[C@@H](C(=O)/C=C/c3cccnc3)[C@@H]1[C@H]1CC[C@@H]3[C@@]4(C)C/C(=C/c5cccnc5)C(=O)C(C)(C)[C@@H]4CC[C@@]3(C)[C@]1(C)CC2 metric=growth recorded_number=-98.9
compound=COC(=O)[C@@H]1[C@H]2C[C@H]3c4[nH]c5cc(OC)ccc5c4CCN3C[C@@H]2C[C@H](OC(=O)/C=C/c2ccnc(OC)c2)[C@H]1OC metric=growth recorded_number=94.8
